Origin of the recorded values: patent US7230033B2

Reported Slope by item:
- Tested on: Ae. aegypti adults
- ASSAY: Adult mosquito bottle bioassay
- Type: in vivo, Aedes aegypti
- TEST CONTEXT: 24 h exposure; probit
Form: value (number only, do not type unit).

• C=C(C)C1CCC23OC2C(=O)C[C@@H](C)[C@]3(C)C1 (some centres unmarked) [Compound 17, nootkatone-1,10-epoxide] = 1.346
• C=C(C=O)C1CCC2=CCC[C@@H](C)[C@]2(C)C1 (some centres unmarked) = 8.714
• C=C(C)[C@@H]1CCC2=C[C@@H](O)C[C@@H](C)[C@]2(C)C1 = 3.201

QUERY: // lookup Slope for C=C(CO)C1CCC2=CCC[C@@H](C)[C@]2(C)C1 (some centres unmarked) [Compound 10, 13-hydroxy-valencene]
RESULT: 2.094

QUERY: // lookup Slope for C=C(C)[C@@H]1CCC2=CC(=O)C[C@@H](C)[C@]2(C)C1 [Compound 9, Nootkatone]
RESULT: 2.845

###

- System: fourth-instar Aedes aegypti larvae
- ASSAY: Larval mosquito bioassay
- Assay type: in vivo
- TEST CONTEXT: Aedes aegypti larval mosquitoes; concentration of the 1 ml added to 150 ml water
- Experimental: Individual groups of 10 fourth-instar Aedes aegypti larvae were contained in 150 ml of water and exposed to […] of essential oils prepared by 2-fold serial dilutions ranging from 0.06%–5.0% in 1 ml of acetone. A control group of larvae were exposed to 1 ml of acetone only. It is important to note that larval mosquitoes are tested in their natural environment, i.e., in water. The particular assays used herein involved groups of 10 larval mosquitoes in 150 ml of water. […]
Marks after values point to notes of the source that are not given here.
READOUT LABEL: LC50 (1 h)

- C=C(CO)C1CCC2=CCC[C@@H](C)[C@]2(C)C1 (stereo partly shown) [Compound 10, 13-hydroxy-valencene]: 5.132 % (wt:vol)

QUERY: // lookup LC50 (1 h) for C=C(C)[C@@H]1CCC2=CC(=O)C[C@@H](C)[C@]2(C)C1 [Compound 7, Nootkatone]
RESULT: 5.327 % (wt:vol)

QUERY: // lookup LC50 (1 h) for C=C(C)[C@@H]1CCC2=CC(=O)C[C@@H](C)[C@]2(C)C1 [Compound 9, Nootkatone]
RESULT: 6.51 % (wt:vol)

QUERY: // lookup LC50 (1 h) for Cc1ccc(C(C)C)cc1O [Compound 4, Carvacrol]
RESULT: 3.853^b % (wt:vol)

###

- Test system: Ae. aegypti adults
- ASSAY: Adult mosquito bottle bioassay
- Format: in vivo, Aedes aegypti
- TEST CONTEXT: 24 h exposure; probit
Assign class by Slope: not lower than 3 means YES; lower than 3 means NO.

For orientation, consider the following solved cases.
- Cc1ccc(C(C)C)cc1O [Compound 4, Carvacrol]: NO
- C=C(C)C1CC=C2C=CCC(C)C2(C)C1 (centres unmarked) [Compound 6, Nootkatene]: YES

QUERY: For this molecule, is measured Slope 3 or higher? C=C(C)[C@@H]1CCC2=CCC[C@@H](C)[C@]2(C)C1 [Compound 5, Valencene]
RESULT: YES

###

Reported LC50 (24 h) by item:
- Tested on: I. scapularis nymphs
- ASSAY: Tick bioassay, treated 2-dram vials, probit analysis
- Assay type: in vivo, Ixodes scapularis
- TEST CONTEXT: Ixodes scapularis nymphal ticks; alone, or 1:1 with carvacrol (in parenthesis)

* C=C(C)[C@@H]1CCC2=CC(=O)C[C@@H](C)[C@]2(C)C1 [Compound 7, Nootkatone] | 0.0029 % (wt:vol)
* C=C(C)[C@@H]1CCC2=CC(=O)C[C@@H](C)[C@]2(C)C1 [Compound 9, Nootkatone] | 0.0033 % (wt:vol)
* Cc1ccc(C(C)C)cc1O [Compound 4, Carvacrol] | 0.0068 % (wt:vol)

Please turn your attention to the following entry.
QUERY: Find the measured LC50 (24 h): item C=C(CO)C1CCC2=CCC[C@@H](C)[C@]2(C)C1 (stereo partly shown) [Compound 10, 13-hydroxy-valencene] , target or system I. scapularis nymphs.
RESULT: 0.0054 % (wt:vol)

###

Reported Slope, residual activity by item:
- Tested on: Ixodes scapularis nymphs
- ASSAY: Residual activity, aged treated vials, ticks
- Type: in vivo
- TEST CONTEXT: 2 weeks after treatment
Form: value (number only, do not type unit).

- C=C(C)[C@@H]1CCC2=CC(=O)C[C@@H](C)[C@]2(C)C1 [Compound 8, Nootkatone]: 2.727
- C=C(C)[C@@H]1CCC2=CC(=O)C[C@@H](C)[C@]2(C)C1 [Compound 9, Nootkatone]: 2.649
- C=C(CO)C1CCC2=CCC[C@@H](C)[C@]2(C)C1 (stereo partly shown) [Compound 10, 13-hydroxy-valencene]: 1.781

Please turn your attention to the following entry.
QUERY: // lookup Slope, residual activity for C=C(C)[C@@H]1CCC2=CC(=O)C[C@@H](C)[C@]2(C)C1 [Compound 7, Nootkatone]
RESULT: 1.586

###

Reported LC90 (1 hr) by item:
- Test system: I. scapularis nymphs
- ASSAY: Tick bioassay, treated 2-dram vials, probit analysis
- Format: in vivo, Ixodes scapularis
- TEST CONTEXT: Ixodes scapularis nymphal ticks; alone, or 1:1 with carvacrol (in parenthesis)

- C=C(CO)C1CCC2=CCC[C@@H](C)[C@]2(C)C1 (stereo partly shown) [Compound 10, 13-hydroxy-valencene]: 0.065 % (wt:vol)
- C=C(C)[C@@H]1CCC2=CC(=O)C[C@@H](C)[C@]2(C)C1 [Compound 9, Nootkatone]: 0.331 % (wt:vol)
- Cc1ccc(C(C)C)cc1O: 0.071 % (wt:vol)

Please turn your attention to the following entry.
QUERY: // lookup LC90 (1 hr) for C=C(C)[C@@H]1CCC2=CC(=O)C[C@@H](C)[C@]2(C)C1 [Compound 7, Nootkatone]
RESULT: 0.725 % (wt:vol)

###

Reported Slope by item:
- System: X. cheopis adults
- ASSAY: Flea bioassay, treated 2-dram vials, probit analysis
- Assay type: in vivo, Xenopsylla cheopis
- TEST CONTEXT: 24 h exposure; probit
- Protocol: Med. […] A control treated with acetone only was run with each series. Tick and flea susceptibility was evaluated using a modification of the disposable pipette method of Barnard et al. (J. Econ. Entomol., 74:466-69, 1981) and Maupin and […]. Med. […] The inner surface of 2-dram friction cap vials were treated with the compound/acetone solution, or acetone only as a control, and left to air-dry overnight (see also, […] et al., J. Med. […]
Form: value (number only, do not type unit).

- C=C(C)[C@@H]1CCC2=CC(=O)C[C@@H](C)[C@]2(C)C1 [Compound 7, Nootkatone]: 3.527

QUERY: // lookup Slope for C=C(C)C1CC=C2C=CCC(C)C2(C)C1 (centres unmarked) [Compound 6, Nootkatene]
RESULT: 2.022

QUERY: // lookup Slope for C=C(C=O)C1CCC2=CCC[C@@H](C)[C@]2(C)C1 (some centres unmarked) [Compound 15, valencene-13-aldehyde]
RESULT: 5.366

QUERY: // lookup Slope for C=C(C)C1CCC23OC2C(=O)C[C@@H](C)[C@]3(C)C1 (some centres unmarked) [Compound 17, nootkatone-1,10-epoxide]
RESULT: 2.326

###

- Tested on: Ae. aegypti adults
- ASSAY: Adult mosquito bottle bioassay
- Format: in vivo, Aedes aegypti
- TEST CONTEXT: Aedes aegypti adult mosquitoes; alone, or 1:1 with carvacrol (in parenthesis)
Reported LC90 (24 h) by item:

• Cc1ccc(C(C)C)cc1O = 0.014 % (wt:vol)
• C=C(C)[C@@H]1CCC2=CC(=O)C[C@@H](C)[C@]2(C)C1 [Compound 7, Nootkatone] = 0.0092 % (wt:vol)
• C=C(C)[C@@H]1CCC2=CC(=O)C[C@@H](C)[C@]2(C)C1 [Compound 9, Nootkatone] = 0.021 % (wt:vol)

QUERY: // lookup LC90 (24 h) for C=C(CO)C1CCC2=CCC[C@@H](C)[C@]2(C)C1 (stereo partly shown) [Compound 10, 13-hydroxy-valencene]
RESULT: 0.014 % (wt:vol)

###

Reported LC90 (24 h) by item:
- System: fourth-instar Aedes aegypti larvae
- ASSAY: Larval mosquito bioassay
- Format: in vivo
- TEST CONTEXT: Aedes aegypti larval mosquitoes; concentration of the 1 ml added to 150 ml water

The following compounds have reported results that may help.
- C=C(C)[C@@H]1CCC2=CC(=O)C[C@@H](C)[C@]2(C)C1 [Compound 9, Nootkatone]: 2.757 % (wt:vol)
- Cc1ccc(C(C)C)cc1O [Compound 4, Carvacrol]: 1.411 % (wt:vol)

QUERY: // lookup LC90 (24 h) for C=C(CO)C1CCC2=CCC[C@@H](C)[C@]2(C)C1 (stereo partly shown) [Compound 10, 13-hydroxy-valencene]
RESULT: 1.23 % (wt:vol)

QUERY: // lookup LC90 (24 h) for C=C(C)[C@@H]1CCC2=CC(=O)C[C@@H](C)[C@]2(C)C1 [Compound 7, Nootkatone]
RESULT: 2.59 % (wt:vol)
